tested on: NCI-H292 lung cancer cells; assay: FDA drug screening, complete media vs cholesterol-free media without statin (TABLE 1); format: cell-based, human; details: NCI-H292 cells, cholesterol-free media without statin, FDA drug library screen
Where a name gives a salt, the structure may show the parent alone.
Using Cholesterol-free as the sorting value, the categories are low bin = under 0.7, mid bin = from 0.7 up to 0.9, high bin = 0.9 and over

>  <COMPOUND>
Clc1ccc2c(c1)C(N1CCNCC1)=Nc1ccccc1O2

>  <ASSIGNED_LABEL>
high bin

$$$$
>  <COMPOUND>
Cc1ccnc2c1NC(=O)c1cccnc1N2C1CC1

>  <ASSIGNED_LABEL>
mid bin

$$$$
>  <COMPOUND>
CCOC(=O)[C@H](CCc1ccccc1)N[C@@H](C)C(=O)N1Cc2ccccc2C[C@H]1C(=O)O [Quinapril (hydrochloride)]

>  <ASSIGNED_LABEL>
low bin

$$$$
>  <COMPOUND>
Cc1c(C)c2c(c(C)c1O)CCC(C)(CCCC(C)CCCC(C)CCCC(C)C)O2 (racemic)

>  <ASSIGNED_LABEL>
mid bin

$$$$
>  <COMPOUND>
COC(=O)c1cc(OC)c2c(c1-c1c(CO)cc(OC)c3c1OCO3)OCO2

>  <ASSIGNED_LABEL>
low bin

$$$$
>  <COMPOUND>
CN(C)C(=O)c1ccc(S(=O)(=O)c2ccc(NC(=O)[C@@](C)(O)C(F)(F)F)c(Cl)c2)cc1

>  <ASSIGNED_LABEL>
mid bin

$$$$
>  <COMPOUND>
CC[C@@H](CO)NCCN[C@@H](CC)CO [Ethambutol (dihydrochloride)]

>  <ASSIGNED_LABEL>
low bin

$$$$
>  <COMPOUND>
CC1(C)[C@@H](OC(=O)CCC(=O)O)CC[C@]2(C)[C@H]3C(=O)C=C4[C@@H]5C[C@@](C)(C(=O)O)CC[C@]5(C)CC[C@@]4(C)[C@]3(C)CC[C@@H]12 [Carbenoxolone (disodium)]

>  <ASSIGNED_LABEL>
high bin

$$$$
>  <COMPOUND>
CC(=O)NC[C@H]1CN(c2ccc(N3CCOCC3)c(F)c2)C(=O)O1

>  <ASSIGNED_LABEL>
high bin

$$$$
>  <COMPOUND>
CCCCCCOC(=O)CCC(=O)CN [Hexaminolevulinate (hydrochloride)]

>  <ASSIGNED_LABEL>
mid bin

$$$$
>  <COMPOUND>
COc1cc(NCc2ccc3nc(N)nc(N)c3c2C)cc(OC)c1OC [Trimetrexate]

>  <ASSIGNED_LABEL>
low bin

$$$$
>  <COMPOUND>
COc1ccc2cc1Oc1ccc(cc1)C[C@H]1c3cc(c(OC)cc3CCN1C)Oc1c(OC)c(OC)cc3c1[C@H](C2)N(C)CC3

>  <ASSIGNED_LABEL>
high bin

$$$$
>  <COMPOUND>
Cn1ncnc1[C@H]1c2n[nH]c(=O)c3cc(F)cc(c23)N[C@@H]1c1ccc(F)cc1 [Talazoparib]

>  <ASSIGNED_LABEL>
low bin

$$$$
>  <COMPOUND>
NNC(=O)c1ccncc1

>  <ASSIGNED_LABEL>
low bin

$$$$
